I'd appreciate it if you could supply MIC values for the items below.
Test system: Pseudomonas aeruginosa
method summary: Antimicrobial activity against Pseudomonas aeruginosa PA14 by EUCAST method
Assay type: functional
# output: numeric value plus its unit

Task: Item "O=C(O)c1cn(C2CC2)c2cc(N3CCNCC3)c(F)cc2c1=O" with Pseudomonas aeruginosa - MIC?
Result: 0.1 µg/mL

Task: Item "C[C@@H](O)[C@H]1C(=O)N2C(C(=O)O)=C(S[C@@H]3CN[C@H](C(=O)N(C)C)C3)[C@H](C)[C@H]12" with Pseudomonas aeruginosa - MIC?
Result: 0.25 µg/mL

Task: Item "CC(C)(O/N=C(\C(=O)N[C@@H]1C(=O)N2C(C(=O)[O-])=C(C[n+]3ccccc3)CS[C@H]12)c1csc(N)n1)C(=O)O" with Pseudomonas aeruginosa - MIC?
Result: 1 µg/mL
